These entries and their values trace back to patent EP4631941A1.

- tgt: DYRK2 kinase (Homo sapiens, UniProt Q92630)
- Sequence (Q92630 whole entry): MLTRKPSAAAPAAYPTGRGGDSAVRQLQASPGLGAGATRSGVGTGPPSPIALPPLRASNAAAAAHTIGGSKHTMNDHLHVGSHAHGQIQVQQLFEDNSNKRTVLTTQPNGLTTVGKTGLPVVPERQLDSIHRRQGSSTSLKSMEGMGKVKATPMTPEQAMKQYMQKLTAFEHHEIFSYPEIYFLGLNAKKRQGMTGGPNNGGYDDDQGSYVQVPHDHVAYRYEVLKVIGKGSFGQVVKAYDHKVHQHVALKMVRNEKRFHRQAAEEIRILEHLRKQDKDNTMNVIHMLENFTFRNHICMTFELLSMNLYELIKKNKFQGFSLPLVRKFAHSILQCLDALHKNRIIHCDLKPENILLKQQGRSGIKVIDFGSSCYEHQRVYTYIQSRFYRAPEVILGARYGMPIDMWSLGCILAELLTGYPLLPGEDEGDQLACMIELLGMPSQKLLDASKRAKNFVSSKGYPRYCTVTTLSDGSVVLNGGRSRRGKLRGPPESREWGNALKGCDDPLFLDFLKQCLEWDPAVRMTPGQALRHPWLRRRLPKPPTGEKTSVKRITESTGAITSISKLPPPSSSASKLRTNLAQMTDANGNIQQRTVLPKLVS
- test_method_notes: DYRK2 kinase activity analysis assay (33P-ATP, DYRKtide substrate, P81 filter paper)
- Assay type: biochemical
- condition_info: 2 hours at room temperature, read-out: IC50
pIC50: −log10 of the molar value. Where a name gives a salt, the structure may show the parent alone.
assay_endpoint: pIC50

CC(C)(C)OC(=O)N1CCN(c2ccc(Nc3ncc(F)c(-c4ccc5scnc5c4)n3)cn2)CC1 :: 7.80
O=C(c1ccc(Nc2nccc(-c3ccc4scnc4c3)n2)nc1)N1CCNCC1 [Example 11, hydrochloride] :: 6.72
O=C(c1ccc(Nc2ncc(F)c(-c3ccc4scnc4c3)n2)cn1)N1CCNCC1 [Example 26, hydrochloride] :: 8.40
COc1cnc(Nc2ccc(CN3CCNCC3)cn2)nc1-c1ccc2scnc2c1 [Example 7, hydrochloride] :: 6.11
CCN1CCN(C(=O)c2ccc(Nc3ncc(C)c(-c4ccc5scnc5c4)n3)nc2)CC1 :: 6.30

A = Cc1cnc(Nc2ccc(C(=O)N3CCNCC3)cn2)nc1-c1ccc2scnc2c1 [Example 5, hydrochloride]
B = CCN1CCN(C(=O)c2cnc(Nc3ncc(F)c(-c4ccc5scnc5c4)n3)nc2)CC1
Quick one: lower pIC50, A or B ? Lab log: write the label of the selected item as the result. B

A = CCN1CCN(C(=O)c2ccc(Nc3ncc(F)c(-c4ccc5sc(N(C)C)nc5c4)n3)cn2)CC1
B = O=C(c1cnc(Nc2ncc(F)c(-c3ccc4scnc4c3)n2)nc1)N1CCNCC1 [Example 23, hydrochloride]
C = CN(C)c1nc2cc(-c3nc(Nc4ccc(C(=O)N5CCNCC5)cn4)ncc3F)ccc2s1 [Example 27, hydrochloride]
Provide the items ranked by increasing pIC50. I'd appreciate it if you listed the labels in the requested order. B, C, A
(B: 6.16, C: 7.74, A: 7.96)

P = CC(C)(C)OC(=O)N1CCN(C(=O)c2cnc(Nc3ncc(F)c(-c4ccc5scnc5c4)n3)nc2)CC1
Q = CCN1CCN(C(=O)c2ccc(Nc3nccc(-c4ccc5scnc5c4)n3)nc2)CC1
R = CCN1CCN(C(=O)c2ccc(Nc3ncc(F)c(-c4ccc5scnc5c4)n3)cn2)CC1
S = Cc1cnc(Nc2ccc(C(=O)N3CCN(C(=O)OC(C)(C)C)CC3)cn2)nc1-c1ccc2scnc2c1
T = Cc1cnc(Nc2ccc(CN3CCN(C(C)C)CC3)cn2)nc1-c1ccc2scnc2c1
Provide the items ranked by increasing pIC50. I'd appreciate it if you listed the labels in the requested order. T, P, S, Q, R
(T: 5.83, P: 6.27, S: 6.57, Q: 7.17, R: 7.82)

1 = O=C(c1ccc(Nc2ncc(F)c(-c3ccc4scnc4c3)n2)nc1)N1CCN(c2ccccc2)CC1
2 = COc1cnc(Nc2ccc(C(=O)N3CCNCC3)cn2)nc1-c1ccc2scnc2c1 [Example 6, hydrochloride]
3 = CCN(CC)c1nc2cc(-c3nc(Nc4ccc(C(=O)N5CCNCC5)cn4)ncc3F)ccc2s1 [Example 28, hydrochloride]
Please rank these compounds by pIC50 in descending order. I'd appreciate it if you listed the labels in the requested order. 3, 1, 2

P = CC(C)(C)OC(=O)N1CCN(C(=O)c2ccc(Nc3ncc(F)c(-c4ccc5scnc5c4)n3)nc2)CC1
Q = CN(C)c1nc2cc(-c3nc(Nc4ccc(C(=O)N5CCNCC5)nc4)ncc3F)ccc2s1 [Example 32, hydrochloride]
R = CCN1CCN(C(=O)c2ccc(Nc3ncc(F)c(-c4ccc5scnc5c4)n3)nc2)CC1
S = c1cc(-c2ccc3scnc3c2)nc(Nc2ccc(CN3CCNCC3)cn2)n1 [Example 8, hydrochloride]
Provide the items ranked by increasing pIC50. I'd appreciate it if you listed the labels in the requested order. S, P, R, Q
(S: 6.20, P: 7.15, R: 7.66, Q: 8.05)

A = CC(C)(C)OC(=O)N1CCN(C(=O)c2ccc(Nc3nccc(-c4ccc5scnc5c4)n3)nc2)CC1
B = CC(C)N1CCN(C(=O)c2ccc(Nc3ncc(F)c(-c4ccc5sc(N(C)C)nc5c4)n3)cn2)CC1
C = Fc1cnc(Nc2ccc(CN3CCNCC3)cn2)nc1-c1ccc2scnc2c1 [Example 13, hydrochloride]
Please rank these compounds by pIC50 in descending order. I'd appreciate it if you listed the labels in the requested order. B, A, C
(B: 7.89, A: 7.00, C: 6.67)
